Reference for the values: patent US20250257126A1

- Assay System: T1, RAD-displayed Fragment 1A of human LGR5 (human)
- T1 construct: also called Frag1A
- T1 sequence (O75473 22-37, looked up): GSSPRSGVLLRGCPTH
- Assay Explanation: bio-layer interferometry (Octet), captured RAD-displayed fragment
pKd: −log10 of the molar value.
Recorded Endpoint: pKd

>  <Binder>
α-LGR5 humanized (antibody, V domains shown, Direct transposition of the murine clone 2 variable domains into the human IgG scaffold; also called α-LGR5 humanised) VH: QVQLQQPGAELVKPGASVKLSCKASGYTFTNYWMQWVKQRPGQGLEWIGEIDPSDSYTNYNQKFKGKATLTVDTSSSTAYMQLSSLTSEDSAVYYCARSLSGYVDYWGQGTTLTVSS VL: DIQMTQTTSSLSASLGDRVTISCRASQDISNRLNWYQQKPDGTVKLLISYRSRLHSGVPSRFSGSGSGTDYSLTISNLEQEDIATYFCQQGNSLPPTFGGGTKLEVR

>  <Recorded Endpoint>
pKd

>  <Observed Result>
8.47

$$$$
